# Test system: Staphylococcus aureus
# assay name: Antibacterial activity against methicillin-resistant Staphylococcus aureus J2918 after 3 hrs by bactericidal assay
# Format: functional
# measurement context: J2918, 3 h
assay metric: MBC

Simply: `H-RIRGGRAAVLNALGKEEQIGRASNSGRKCARKKK-OH` , Staphylococcus aureus, MBC = > 10 µg/mL

Simply: `H-RGGRAAVLNA-OH` , Staphylococcus aureus, MBC = 1.2 µg/mL

Simply: `H-LGKEEQIGRASNSGRKCARKKK-OH` , Staphylococcus aureus, MBC = > 205 µg/mL

Simply: `H-FFARIRGGRAAVLNALGKEEQIGRASNSGRKCARKKK-OH` , Staphylococcus aureus, MBC = 2.2 µg/mL

Simply: `H-IRGGRAAVLNALGKEEQIGRAS-OH` , Staphylococcus aureus, MBC = > 22 µg/mL

Simply: `H-AAVLNALGKEEQIGRASNSGRKCARKKK-OH` , Staphylococcus aureus, MBC = > 10 µg/mL

Simply: `H-LRKFFARIRGGR-OH` , Staphylococcus aureus, MBC = 7.1 µg/mL

Simply: `H-GGRAAVLNALGKEEQIGRASNSGRKCARKKK-OH` , Staphylococcus aureus, MBC = > 10 µg/mL

* * *

# System: Escherichia coli
# assay name: Antimicrobial activity against Escherichia coli ATCC 25922 after 3 hrs by bactericidal assay
# Type: functional
# measurement context: ATCC 25922, 3 h
I'd be grateful if you could share measured MBC for these entries.
Enter your answer as a number in µg/mL; do not include the unit.

Lab book: MBC of `H-RGGRAAVLNA-OH` noted as 9.6

Lab book: MBC of `H-FFARIRGGRAAVLNALGKEEQIGRASNSGRKCARKKK-OH` noted as 10

Lab book: MBC of `H-IRGGRAAVLNALGKEEQIGRAS-OH` noted as 38.6

* * *

# System: Pseudomonas aeruginosa
# assay name: Antimicrobial activity against Pseudomonas aeruginosa PAO1 after 3 hrs by bactericidal assay
# Type: functional
# measurement context: PAO1, 3 h
assay metric: MBC (µg/mL)
Enter your answer as a number in µg/mL; do not include the unit.

Lab book: MBC of `H-IRGGRAAVLNALGKEEQIGRAS-OH` noted as 1.2

Lab book: MBC of `H-RGGRAAVLNA-OH` noted as 1.2

Lab book: MBC of `H-RIRGGRAAVLNALGKEEQIGRASNSGRKCARKKK-OH` noted as 1.7

Lab book: MBC of `H-FFARIRGGRAAVLNALGKEEQIGRASNSGRKCARKKK-OH` noted as 1.1

* * *

# Tested on: Escherichia coli
# assay name: Antimicrobial activity against Escherichia coli ATCC 25922 after 3 hrs by bactericidal assay
# Format: functional
# measurement context: ATCC 25922, 3 h
I'd be grateful if you could share measured MBC for these entries.

Lab book: MBC of `H-RIRGGRAAVLNALGKEEQIGRASNSGRKCARKKK-OH` noted as > 10 µg/mL

Lab book: MBC of `H-AAVLNALGKEEQIGRASNSGRKCARKKK-OH` noted as > 10 µg/mL

Lab book: MBC of `H-GGRAAVLNALGKEEQIGRASNSGRKCARKKK-OH` noted as > 10 µg/mL

* * *

I'd be grateful if you could share measured MBC for these entries.
# Test system: Pseudomonas aeruginosa
# assay name: Antimicrobial activity against Pseudomonas aeruginosa PAO1 after 3 hrs by bactericidal assay
# Assay type: functional
# measurement context: PAO1, 3 h

Lab book: MBC of `H-AAVLNA-OH` noted as > 83.5 µg/mL

Lab book: MBC of `H-AAVLNALGKEEQIGRASNSGRKCARKKK-OH` noted as > 16.5 µg/mL

Lab book: MBC of `H-LGKEEQIGRASNSGRKCARKKK-OH` noted as > 33 µg/mL

Lab book: MBC of `H-GGRAAVLNALGKEEQIGRASNSGRKCARKKK-OH` noted as > 15.2 µg/mL
